src = ChEMBL document CHEMBL5335794

Molecular target: UniProt:P56817
Sequence (P56817 whole entry): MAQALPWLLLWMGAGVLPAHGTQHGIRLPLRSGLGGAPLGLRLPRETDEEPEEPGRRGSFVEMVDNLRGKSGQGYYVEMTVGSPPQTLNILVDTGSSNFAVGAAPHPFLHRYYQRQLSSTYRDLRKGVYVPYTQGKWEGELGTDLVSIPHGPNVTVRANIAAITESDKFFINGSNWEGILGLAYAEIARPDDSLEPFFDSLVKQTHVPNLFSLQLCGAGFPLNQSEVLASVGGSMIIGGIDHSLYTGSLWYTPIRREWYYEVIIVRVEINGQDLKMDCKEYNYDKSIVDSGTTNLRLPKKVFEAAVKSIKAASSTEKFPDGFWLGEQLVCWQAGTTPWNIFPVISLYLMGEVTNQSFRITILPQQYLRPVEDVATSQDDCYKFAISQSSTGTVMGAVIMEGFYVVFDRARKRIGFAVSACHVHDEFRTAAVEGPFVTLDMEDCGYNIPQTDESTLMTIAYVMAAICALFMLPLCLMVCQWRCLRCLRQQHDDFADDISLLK
Conditions: dose 50.0 µM, time 60.0 min
The entries below come with measured inhibition values attached.
The answer is to be given in %; state only the numeric part.

Reference set, count: 3
COMPOUND	ASSAY_ENDPOINT	DATA_VALUE
CN(CC/C=C/c1ccccc1-c1ccccc1)C(CO)C(=O)NCc1ccccc1 (stereo not given)	inhibition	42
CN(CCC=C1c2ccccc2CCc2ccccc21)C(CO)C(=O)NCc1ccc(F)cc1 (stereo not given)	inhibition	48
CC(=O)NCCC(C(=O)NCc1ccccc1Cl)N(C)CCC=C1c2ccccc2CCc2ccccc21 (stereo not given)	inhibition	44

Consider the compound shown here: Cc1ccc(CNC(=O)C(CCO)N(C)CCOCCN2c3ccccc3Sc3ccccc32)cc1 (stereo not given) What is its recorded inhibition?
30

Same read-out for CC(=O)NCCC(C(=O)NCc1ccccc1Cl)N(C)CCOCCN1c2ccccc2Sc2ccccc21 (stereo not given) ?
35
